- Experimental protocol: Mean residence time in Sprague-Dawley rat at 2.5 mg/kg, iv measured for 5 min to 72 hrs by LC-MS/MS analysis
- Assay type: ADME, organism-based
- Condition label: in vivo

Mol: Nc1nccc(Oc2ccc(Nc3nccc4[nH]cc(-c5ccc(F)cc5)c(=O)c34)cc2F)c1Cl
MRT: 18 min

###

- Experimental protocol: AUC (0 to infinity) in Sprague-Dawley rat at 10 mg/kg, ig measured for 15 min to 72 hrs by LC-MS/MS analysis
- Type: ADME, organism-based
- Parameters: dose 10 mg/kg, time infinity, route intragastric
- Condition label: in vivo, po

Mol: Nc1nccc(Oc2ccc(Nc3nccc4[nH]cc(-c5ccc(F)cc5)c(=O)c34)cc2F)c1Cl
AUC(0-inf): 2200 ng·h/mL
